Kindly supply the reported residual activity values for the records listed here.
# Experimental target: Myotonin-protein kinase (Homo sapiens)
# Setup conditions: at 1 µM
One number for each entry, in %.

As a guide, the following entries are already answered.
>>> recorded_result("CCn1cnc2c(Nc3cccc(Cl)c3)nc(N[C@@H]3CCCC[C@@H]3N)nc21")
123
>>> recorded_result("O=c1[nH]c2ccccc2n1C1CCN(Cc2ccc(-c3nc4cc5[nH]cnc5cc4nc3-c3ccccc3)cc2)CC1")
133
>>> recorded_result("O=[N+]([O-])/C=C/c1ccc2c(c1)OCO2")
137
>>> recorded_result("COc1ccc2c(c[n+](C)c3c4cc5c(cc4ccc23)OCO5)c1OC")
111
>>> recorded_result("O=C1c2ccccc2-c2nc3nnnn3nc21")
127
>>> recorded_result("N/C(=N\\[N+](=O)[O-])N/N=C\\c1ccc(-c2cccc([N+](=O)[O-])c2)o1")
98

query: Give reported residual activity value for CC(C)(C)c1cc(C=C(C#N)C#N)cc(Br)c1O
result: 98
